- Experimental Protocol: Cytotoxicity against human HuH7 cells assessed as cell viability after 3 days by XTT assay
- Assay type: cell-based, Huh-7
Entries and their CC50 at 72 h
Report as a plain number; the unit µM is understood.

Example entries begin here.
INSERT INTO assay_data (compound, measurement) VALUES
  ('NC(=O)c1ncn([C@@H]2O[C@H](CO)[C@@H](O)[C@H]2O)n1 [RIBAVIRIN]', 56.3),
  ('COc1ccc(-c2cc3ccccc3nc2C(O)c2ccc(OC)cc2)cc1 (stereo unspecified)', 63.1);

API: the following record is the query input.
# input compound: COc1ccc(-c2cc3cc(OC)ccc3nc2C(O)c2ccccc2)cc1 (stereo unspecified) ; wanted: its CC50 at 72 h
68.9

* * *

Entries and their viability at 72 h, 100 µM
- Experimental Protocol: Cytotoxicity against human HuH7 cells assessed as cell viability at 100 uM after 3 days by XTT assay
- Assay type: cell-based, Huh-7
- Measurement Conditions: read-out: Activity

Example entries begin here.
INSERT INTO results (molecule, measurement) VALUES
  ('O=C(c1ccc(O)cc1)c1nc2ccccc2cc1-c1ccc(OCCN2CCCC2)cc1', '18.1%'),
  ('O=C(c1ccc(O)cc1)c1nc2ccccc2cc1-c1ccc(O)cc1', '65.1%'),
  ('COc1ccc(C(=O)c2nc3ccccc3cc2-c2ccc(OC)cc2)cc1', '68.2%'),
  ('O=C(c1ccc(O)cc1)c1nc2ccccc2cc1-c1ccc(OCCN2CCCCC2)cc1', '19.5%'),
  ('COc1ccc(-c2cc3ccccc3nc2C(O)c2ccc(OC)cc2)cc1 (configuration not stated)', '31.9%');

# input molecule: O=C(c1ccccc1)c1nc2ccc(F)cc2cc1-c1ccc(F)cc1 ; wanted: its viability at 72 h, 100 µM
75.1%

Okay, and COc1ccc(-c2cc3ccccc3nc2C(O)c2cc(OC)c(OC)c(OC)c2)cc1 (configuration not stated) ?
62.5%

Okay, and NC(=O)c1ncn([C@@H]2O[C@H](CO)[C@@H](O)[C@H]2O)n1 ?
26.8%

Okay, and COc1ccc(-c2cc3cc(F)ccc3nc2C(=O)c2ccccc2)cc1 ?
89.7%

Okay, and COc1ccc(-c2cc3ccccc3nc2C(=O)c2ccccc2)cc1 ?
87.8%

Okay, and CN(C)CCCOc1ccc(-c2cc3ccccc3nc2C(=O)c2ccc(O)cc2)cc1 ?
16.8%

Okay, and O=C(c1ccc(OCCN2CCCCC2)cc1)c1nc2ccccc2cc1-c1ccc(OCCN2CCCCC2)cc1 ?
15.8%

Okay, and COc1ccc(-c2cc3cc(F)ccc3nc2C(O)c2ccccc2)cc1 (configuration not stated) ?
30.7%

Okay, and O=C(c1ccccc1)c1nc2ccccc2cc1-c1ccc(F)cc1 ?
45.9%

Okay, and OC(c1ccccc1)c1nc2ccccc2cc1-c1ccc(F)cc1 (configuration not stated) ?
90.9%

Okay, and COc1ccc(-c2cc3ccccc3nc2C(O)c2ccccc2)cc1 (configuration not stated) ?
68.1%

Okay, and CN(C)CCCOc1ccc(C(=O)c2nc3ccccc3cc2-c2ccc(OCCCN(C)C)cc2)cc1 ?
19.2%

Okay, and O=C(c1ccc(OCCN2CCCC2)cc1)c1nc2ccccc2cc1-c1ccc(OCCN2CCCC2)cc1 ?
16.6%

Okay, and OC(c1ccccc1)c1nc2ccc(F)cc2cc1-c1ccc(F)cc1 (configuration not stated) ?
92.3%

Okay, and COc1ccc(-c2cc3ccccc3nc2C(=O)c2cc(OC)c(OC)c(OC)c2)cc1 ?
35.1%

Okay, and COc1ccc(-c2cc3cc(OC)ccc3nc2C(O)c2ccccc2)cc1 (configuration not stated) ?
26%

Okay, and COc1ccc(-c2cc3cc(OC)ccc3nc2C(=O)c2ccccc2)cc1 ?
84.3%

* * *

- System: dengue virus type 2
- Experimental Protocol: Antiviral activity against DENV2 16681 infected in human Huh-7 cells at 5 uM after 3 days by luciferase reporter gene assay
- Assay type: functional
- Measurement Conditions: Dengue virus, 16681, Huh-7, 72 h
Measurement Name: inhibition at 5 µM (%)
Report as a plain number; the unit % is understood.

Example entries begin here.
INSERT INTO measurements (molecule, measurement_name, measurement) VALUES
  ('OC(c1ccccc1)c1nc2ccccc2cc1-c1ccc(F)cc1 (stereo not given)', 'inhibition at 5 µM', 13.1),
  ('COc1ccc(-c2cc3ccccc3nc2C(O)c2cc(OC)c(OC)c(OC)c2)cc1 (stereo not given)', 'inhibition at 5 µM', 22.3),
  ('COc1ccc(-c2cc3ccccc3nc2C(O)c2ccccc2)cc1 (stereo not given)', 'inhibition at 5 µM', 45.3),
  ('NC(=O)c1ncn([C@@H]2O[C@H](CO)[C@@H](O)[C@H]2O)n1', 'inhibition at 5 µM', 32),
  ('O=C(c1ccccc1)c1nc2ccccc2cc1-c1ccc(F)cc1', 'inhibition at 5 µM', 20.1);

# input molecule: COc1ccc(-c2cc3cc(F)ccc3nc2C(=O)c2ccccc2)cc1 ; wanted: its inhibition at 5 µM
7.24

Okay, and O=C(c1ccccc1)c1nc2ccc(F)cc2cc1-c1ccc(F)cc1 ?
32.1

Okay, and COc1ccc(-c2cc3ccccc3nc2C(=O)c2ccccc2)cc1 ?
3.12

Okay, and COc1ccc(-c2cc3ccccc3nc2C(O)c2ccc(OC)cc2)cc1 (stereo not given) ?
33.5

* * *

- Test system: dengue virus type 2
- Experimental Protocol: Antiviral activity against DENV2 by cell based assay
- Type: functional, organism-based
Measurement Name: IC50 (µM)
Report as a plain number; the unit µM is understood.

# input compound: CCOc1ccc2nc(C)cc(Nc3ccc(OCc4ccccc4Cl)cc3)c2c1 ; wanted: its IC50
5

* * *

- Experimental Protocol: Cytotoxicity against human HuH7 cells assessed as cell viability at 20 uM after 3 days by XTT assay
- Assay type: cell-based, Huh-7
- Measurement Conditions: read-out: Activity
Please respond with rule met when measured viability at 72 h, 20 µM is strictly beneath 90%, and with rule not met in all other cases.

INSERT INTO assay_data (compound, class_label) VALUES
  ('COc1ccc(-c2cc3cc(F)ccc3nc2C(=O)c2ccccc2)cc1', 'rule not met'),
  ('O=C(c1ccccc1)c1nc2ccccc2cc1-c1ccc(F)cc1', 'rule met'),
  ('COc1ccc(-c2cc3ccccc3nc2C(O)c2cc(OC)c(OC)c(OC)c2)cc1 (configuration not stated)', 'rule not met');

Please check: viability at 72 h, 20 µM for CN(C)CCCOc1ccc(-c2cc3ccccc3nc2C(=O)c2ccc(O)cc2)cc1 , strictly under 90% or not?
rule met

Okay, and O=C(c1ccc(OCCN2CCCC2)cc1)c1nc2ccccc2cc1-c1ccc(OCCN2CCCC2)cc1 ?
rule met

Okay, and COc1ccc(-c2cc3ccccc3nc2C(O)c2ccccc2)cc1 (configuration not stated) ?
rule not met

Okay, and COc1ccc(C(=O)c2nc3ccccc3cc2-c2ccc(OC)cc2)cc1 ?
rule not met

Okay, and O=C(c1ccc(OCCN2CCCCC2)cc1)c1nc2ccccc2cc1-c1ccc(OCCN2CCCCC2)cc1 ?
rule met

* * *

- Experimental Protocol: Cytotoxicity against human HuH7 cells assessed as cell viability at 20 uM after 3 days by XTT assay
- Format: cell-based, Huh-7
- Measurement Conditions: read-out: Activity
Please respond with label 1 when measured viability at 72 h, 20 µM is strictly beneath 90%, and with label 0 in all other cases.

INSERT INTO assay_data (molecule, class_label) VALUES
  ('O=C(c1ccc(O)cc1)c1nc2ccccc2cc1-c1ccc(OCCN2CCCCC2)cc1', 'label 1');

Please check: viability at 72 h, 20 µM for NC(=O)c1ncn([C@@H]2O[C@H](CO)[C@@H](O)[C@H]2O)n1 , strictly under 90% or not?
label 1

Okay, and CN(C)CCCOc1ccc(C(=O)c2nc3ccccc3cc2-c2ccc(OCCCN(C)C)cc2)cc1 ?
label 1

Okay, and COc1ccc(-c2cc3ccccc3nc2C(=O)c2ccccc2)cc1 ?
label 0

Okay, and OC(c1ccccc1)c1nc2ccc(F)cc2cc1-c1ccc(F)cc1 (stereo not given) ?
label 0

Okay, and O=C(c1ccccc1)c1nc2ccc(F)cc2cc1-c1ccc(F)cc1 ?
label 0

Okay, and COc1ccc(-c2cc3ccccc3nc2C(=O)c2cc(OC)c(OC)c(OC)c2)cc1 ?
label 1

Okay, and OC(c1ccccc1)c1nc2ccccc2cc1-c1ccc(F)cc1 (stereo not given) ?
label 0

Okay, and COc1ccc(-c2cc3ccccc3nc2C(O)c2ccc(OC)cc2)cc1 (stereo not given) ?
label 1

* * *

- Experimental Protocol: Cytotoxicity against human HuH7 cells assessed as cell viability after 3 days by XTT assay
- Type: cell-based, Huh-7
Measurement Name: CC50 at 72 h

Example entries begin here.
INSERT INTO results (compound, measurement_name, measurement) VALUES
  ('COc1ccc(-c2cc3cc(OC)ccc3nc2C(=O)c2ccccc2)cc1', 'CC50 at 72 h', '> 100 µM'),
  ('O=C(c1ccc(O)cc1)c1nc2ccccc2cc1-c1ccc(O)cc1', 'CC50 at 72 h', '> 100 µM');

# input compound: COc1ccc(-c2cc3ccccc3nc2C(O)c2ccccc2)cc1 (stereo not drawn) ; wanted: its CC50 at 72 h
> 100 µM
